System: Digitaria sanguinalis
ASSAY TEXT: Herbicidal activity against Digitaria sanguinalis (hairy crabgrass) assessed as growth inhibition at 150 g ai/ha using post-emergence protocol under greenhouse conditions measured 15 days after compound treatment
Type: functional
CONDITION NOTES: 360 h, read-out: GI

# COMPOUND, inhibition of growth at 150 g/ha
records = [
    ("O=C1C2=C(CCCC2)C(O)N1c1cc(O)c(Br)cc1F (stereo unspecified)", "50%"),
    ("CCCOc1cc(N2CC3=C(CCCC3)C2=O)c(Cl)cc1Cl", "< 50%"),
    ("Nc1cc(N2CC3=C(CCCC3)C2=O)ccc1Cl", "< 50%"),
    ("C=CCOc1cc(N2C(=O)C3=C(CCCC3)C2O)c(F)cc1Cl (stereo unspecified)", "< 50%"),
    ("CCOC(=O)COc1cc(N2C(=O)C3CCCCC3C2O)c(F)cc1Cl (stereo unspecified)", "< 50%"),
    ("O=C1C2CCCCC2C(O)N1c1cc(OC2CCCC2)c(Cl)cc1F (stereo unspecified)", "< 50%"),
    ("C=CCOc1cc(N2C(=O)C3=C(CCCC3)C2O)c(Cl)cc1Cl (stereo unspecified)", "< 50%"),
    ("COc1cc(N2C(=O)C3CCCCC3C2=O)c(F)cc1Cl (stereo unspecified)", "50%"),
    ("C=CCOc1cc(N2C(=O)C3=C(CCCC3)C2OCC=C)c(F)cc1Cl (stereo unspecified)", "> 80%"),
    ("CCCOc1cc(N2CC3=C(CCCC3)C2=O)c(F)cc1Cl", "> 80%"),
    ("C=CCOc1cc(N2C(=O)C3CCCCC3C2O)c(F)cc1Cl (stereo unspecified)", "< 50%"),
]
